B1: glmS ribozyme (parent)
chain: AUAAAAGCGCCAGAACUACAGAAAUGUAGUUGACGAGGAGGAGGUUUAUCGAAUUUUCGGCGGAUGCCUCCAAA

Variants of: B1
Experiment: self-cleavage kobs at 640 uM GlcN6P; higher = faster cleavage; RNA array
Conditions: with glucosamine-6-phosphate
Variants at the floor of the assay were thinned out.
Threshold check on self-cleavage kobs at 640 uM GlcN6P: at or above 0.0001 s⁻¹ gives rule met, strictly below gives rule not met.

> print(dat)
   sequence.variant  assigned.label
1     G7C A14C A52U    rule not met
2    A14U U31G A39C        rule met
3         U31A A53C        rule met
4         U30A U49C    rule not met
5          A6C G40C    rule not met

Please indicate if the recorded self-cleavage kobs at 640 uM GlcN6P for A36U U55C meets or exceeds 0.0001 s⁻¹.
rule not met

Please check the record A14C A42G G66A and state if its self-cleavage kobs at 640 uM GlcN6P is at or above 0.0001 s⁻¹.
rule met

I'd appreciate it if you could say whether G32U G41A has self-cleavage kobs at 640 uM GlcN6P at least equal to 0.0001 s⁻¹.
rule not met

Evaluate A6U G41A G44C C67G C70G : self-cleavage kobs at 640 uM GlcN6P at minimum 0.0001 s⁻¹?
rule not met

Record G40C U45G ; criterion: self-cleavage kobs at 640 uM GlcN6P no lower than 0.0001 s⁻¹. Met?
rule met

Does the reported self-cleavage kobs at 640 uM GlcN6P for A39U C70U fall at or above the 0.0001 s⁻¹ mark?
rule met
